Biological target: Jak2 (UniProt O60674)
Sequence (O60674 whole entry, looked up): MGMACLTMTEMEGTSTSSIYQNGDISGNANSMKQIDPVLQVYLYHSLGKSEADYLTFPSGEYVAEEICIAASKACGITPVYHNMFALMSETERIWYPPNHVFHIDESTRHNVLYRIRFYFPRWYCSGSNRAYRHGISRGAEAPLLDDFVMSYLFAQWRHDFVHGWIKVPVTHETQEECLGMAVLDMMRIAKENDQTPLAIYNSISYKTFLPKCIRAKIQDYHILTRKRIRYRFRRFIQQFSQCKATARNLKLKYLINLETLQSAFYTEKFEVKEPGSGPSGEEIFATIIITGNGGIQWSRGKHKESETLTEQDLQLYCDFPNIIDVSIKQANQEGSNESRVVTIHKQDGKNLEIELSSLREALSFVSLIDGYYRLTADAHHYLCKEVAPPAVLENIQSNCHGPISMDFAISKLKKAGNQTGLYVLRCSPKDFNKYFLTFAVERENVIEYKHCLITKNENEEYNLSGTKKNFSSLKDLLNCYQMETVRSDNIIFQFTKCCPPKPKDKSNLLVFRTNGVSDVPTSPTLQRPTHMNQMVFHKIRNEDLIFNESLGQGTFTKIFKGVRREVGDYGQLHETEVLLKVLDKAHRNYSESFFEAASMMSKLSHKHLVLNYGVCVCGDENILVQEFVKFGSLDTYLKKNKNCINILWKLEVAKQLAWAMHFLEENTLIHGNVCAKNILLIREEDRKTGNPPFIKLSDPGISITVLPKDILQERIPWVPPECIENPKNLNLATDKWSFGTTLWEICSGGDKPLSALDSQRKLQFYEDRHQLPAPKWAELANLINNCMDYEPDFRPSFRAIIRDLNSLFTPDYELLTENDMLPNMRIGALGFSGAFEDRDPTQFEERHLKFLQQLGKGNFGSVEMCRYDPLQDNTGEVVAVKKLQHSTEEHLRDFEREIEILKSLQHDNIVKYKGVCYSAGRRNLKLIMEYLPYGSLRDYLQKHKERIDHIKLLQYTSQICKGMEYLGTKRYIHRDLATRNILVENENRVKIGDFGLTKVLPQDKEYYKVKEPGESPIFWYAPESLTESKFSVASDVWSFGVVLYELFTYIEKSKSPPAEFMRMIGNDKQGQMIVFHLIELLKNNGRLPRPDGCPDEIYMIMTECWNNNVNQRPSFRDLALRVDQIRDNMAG
Assay: phosphorylation enrichment, bacterial display (enrichment ratio); higher = better substrate or ligand; peptides without Tyr show the background;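 further: 11-residue human phosphosite peptides and single-mutation variants displayed on the E. coli surface, counted by deep sequencing, each peptide's frequency after selection divided by its frequency in the unselected input library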;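 further: frequency after pTyr selection over input frequency; kinase dosed for 20-30% of maximal phosphorylation in three min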
PARAMETER: phosphorylation enrichment

Some sequences with recorded phosphorylation enrichment:
ITEM_SEQUENCE: VVTFSYKPAGN [RBL2_Y544_P547A]
phosphorylation enrichment: 0.643
--
ITEM_SEQUENCE: SLIERYEPSET [PLCD1_Y258]
phosphorylation enrichment: 0.966
--
ITEM_SEQUENCE: VGTKWYMAPEV [ACVRL1_Y375_R374W]
phosphorylation enrichment: 0.963
--
ITEM_SEQUENCE: WFISFYPQVIM [CTNS_Y143_S139F]
phosphorylation enrichment: 1.13
--
ITEM_SEQUENCE: WHYTFYNELRV [ACTC1_Y93_H90Y]
phosphorylation enrichment: 1.27

Give phosphorylation enrichment for each listed item.
1. DMDATYRPMFS [JUP_Y701_YF]
2. KLIETYFSKNY [PLP1_Y50]
3. RAMPVYEKAEH [TP63_Y231_K232E]
4. LYSNAYLSDLA [ALDH1A1_Y119_N121S]
5. RPSRWYQFPVA [ANOS1_Y259_R262P]
6. RVNSAYQEKVS [ACAN_Y100_D102E]

Completion:
1. 0.752
2. 0.719
3. 1.03
4. 0.945
5. 0.914
6. 0.538
